# Target Or System: corticotropin releasing factor 1 receptor
# Assay Remarks: cell-based or functional assay
Measurement Type: CRF1R EC50

>  <Binder>
ZGPPISIDLPFQLLRKLIEIEKQEKEKQQAANNALLLATI (C-terminal amide) [SEQ ID NO 357]

>  <Test Value>
331 nM

$$$$
>  <Binder>
ZGPPISIDLPLQLLEKMIEIEKQEKEKQQAANNALLLATI (C-terminal amide) [SEQ ID NO 249]

>  <Test Value>
1000 nM

$$$$
>  <Binder>
ZGPPISIDLPLYLLRKMIEIEKQEKEKQQAANNALLLDTI (C-terminal amide) [SEQ ID NO 244]

>  <Test Value>
300 nM

$$$$
>  <Binder>
ZGPPISIDLPYHLLRKMIEIEKQEKEKQQAANNALLLAT (C-terminal amide) [SEQ ID NO 315]

>  <Test Value>
454 nM

$$$$
>  <Binder>
ZGPPISIDLPFQLLRILIEIEKQEKEKQQAANNRLLLDTI (C-terminal amide) [SEQ ID NO 255]

>  <Test Value>
33.3 nM

$$$$
>  <Binder>
ZGPPISIDVPYQLLRKVIEIEKQEKEKQQAANNARLLDTI (C-terminal amide) [SEQ ID NO 374]

>  <Test Value>
1000 nM

$$$$

Reference source for all entries: patent US20030148956A1
